Data credit: ChEMBL document CHEMBL4837269

Parameter: remaining at 10 min. Scope: all listed entries.
Experiment: Metabolic stability in human liver microsomes assessed as parent compound remaining measured after 10 mins in presence of NADPH
Format: ADME, Microsome
Details: liver microsomes, read-out: Stabilty
Hi! Could you send only the number? It should be in %, unit omitted.

Sample answers from the record:
- Molecule: "CCCCc1nc(=O)c(C(=O)N2CCC(c3cccnc3)C2)c(O)n1-c1c(OC)cccc1OC (stereo in doubt; 12a)"
  Measured number: 82
- Molecule: "CCCCc1nc(=O)c(C(=O)N2CCC(c3ccncc3)C2)c(O)n1-c1c(OC)cccc1OC (stereo in doubt; 13a)"
  Measured number: 93

Give the reported value of remaining at 10 min for this record: CCCCc1[nH]c(=O)c(C(=O)N2CC[C@H](c3ccccc3)C2)c(O)c1-c1c(OC)cccc1OC
99

====

Parameter: pEC50. Scope: all listed entries.
Target: Apelin receptor (Homo sapiens)
Sequence (P35414 whole entry): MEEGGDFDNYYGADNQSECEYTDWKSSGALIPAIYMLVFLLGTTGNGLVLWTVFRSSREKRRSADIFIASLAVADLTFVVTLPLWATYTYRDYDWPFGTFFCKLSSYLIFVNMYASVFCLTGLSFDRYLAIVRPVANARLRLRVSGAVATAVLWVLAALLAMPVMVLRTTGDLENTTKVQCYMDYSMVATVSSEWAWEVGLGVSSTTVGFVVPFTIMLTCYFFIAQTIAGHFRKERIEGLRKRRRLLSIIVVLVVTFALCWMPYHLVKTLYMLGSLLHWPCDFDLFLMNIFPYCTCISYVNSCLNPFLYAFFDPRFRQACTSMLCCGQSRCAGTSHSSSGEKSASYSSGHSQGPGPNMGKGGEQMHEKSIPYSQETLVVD
Test: Agonist activity at human APJ receptor expressed in HEK293T cells assessed as compound stimulated inhibition of forskolin stimulated cAMP production incubated for 30 mins by HTRF assay
Conceptually, pEC50 converts a concentration in mol/L into minus its log10.

- Compound: "CCOCc1nc(=O)c(C(=O)N2CC[C@H](c3ccccc3)C2)c(O)n1-c1c(OC)cccc1OC"
  pEC50: 9.36
- Compound: "CCCCc1nc(=O)c(C(=O)N2CCC(c3cccnc3)C2)c(O)n1-c1c(OC)cccc1OC (stereo in doubt; 12a)"
  pEC50: 9.54
- Compound: "CCCCc1nc(=O)c(C(=O)N2CCC(c3ccc(Cl)cc3)C2)c(O)n1-c1c(OC)cccc1OC (stereo in doubt; 10b)"
  pEC50: 9.62
- Compound: "CCCCc1nc(=O)c(C(=O)N2CCC(c3ccncc3)C2)c(O)n1-c1c(OC)cccc1OC (stereo in doubt; 13b)"
  pEC50: 8.57
- Compound: "CCCCc1[nH]c(=O)c(C(=O)N(CCC)Cc2ccccc2)c(O)c1-c1c(OC)cccc1OC"
  pEC50: 6.92

Now turn to the next compound.
Give the reported value of pEC50 for this record: CCCCc1[nH]c(=O)c(C(=O)N(C)C)c(O)c1-c1c(OC)cccc1OC
5.96

====

Test: Permeability of the compound at pH 5.5 by PAMPA assay
Type: ADME
Settings: read-out: permeability
Reported property: Papp (×10⁻⁶ cm/s)
Hi! Could you send only the number? It should be in ×10⁻⁶ cm/s, unit omitted.

- Compound: "CCCCc1nc(=O)c(C(=O)N2CCC(c3cccnc3)C2)c(O)n1-c1c(OC)cccc1OC (stereo in doubt; 12a)"
  Reported property: "Papp"
  Measured number: 2.3
- Compound: "CCCCc1nc(=O)c(C(=O)N2CCC(c3ccccn3)C2)c(O)n1-c1c(OC)cccc1OC (stereo in doubt; 11a)"
  Reported property: "Papp"
  Measured number: 4.2
- Compound: "CCCCc1[nH]c(=O)c(C(=O)N2CC[C@@H](c3ccccc3)C2)c(O)c1-c1c(OC)cccc1OC"
  Reported property: "Papp"
  Measured number: 63

Now turn to the next compound.
Give the reported value of Papp for this record: CCCCc1nc(=O)c(C(=O)N2CC[C@@H](c3ccccc3)C2)c(O)n1-c1c(OC)cccc1OC
32.5

====

Target: Apelin receptor (Rattus norvegicus)
Sequence (Q9JHG3 whole entry): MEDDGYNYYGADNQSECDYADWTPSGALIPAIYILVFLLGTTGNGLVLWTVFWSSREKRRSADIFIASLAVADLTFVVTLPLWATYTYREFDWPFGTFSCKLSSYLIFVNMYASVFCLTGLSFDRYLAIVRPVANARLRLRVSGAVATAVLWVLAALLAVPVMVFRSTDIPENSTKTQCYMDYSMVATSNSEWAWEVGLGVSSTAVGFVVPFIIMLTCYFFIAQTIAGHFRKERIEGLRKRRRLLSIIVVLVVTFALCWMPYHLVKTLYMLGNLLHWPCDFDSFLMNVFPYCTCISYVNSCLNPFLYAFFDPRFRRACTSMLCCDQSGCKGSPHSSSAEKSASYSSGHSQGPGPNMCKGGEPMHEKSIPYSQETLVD
Test: Agonist activity at rat APJ receptor expressed in HEK293T cells assessed as compound stimulated inhibition of forskolin stimulated cAMP production incubated for 30 mins by HTRF assay
Format: functional, cell-based
Strictly below 0.4 nM in EC50: T. Otherwise: F.

Study these solved cases before continuing.
- Compound: "CCCCc1nc(=O)c(C(=O)N2CCC(c3ccc(Cl)cc3)C2)c(O)n1-c1c(OC)cccc1OC (stereo in doubt; 10b)"
  Target or test system: "Apelin receptor (Rattus norvegicus)"
  Assigned category: "T"
- Compound: "CCCCc1nc(=O)c(C(=O)N2CC[C@H](c3ccccc3)C2)c(O)n1-c1c(OC)cccc1OC"
  Target or test system: "Apelin receptor (Rattus norvegicus)"
  Assigned category: "T"

Quick check: does CCCCc1nc(=O)c(C(=O)N2CCC(c3ccc(Cl)cc3)C2)c(O)n1-c1c(OC)cccc1OC (stereo in doubt; 10a) have EC50 under 0.4 nM?
T

Quick check: does CCCCc1[nH]c(=O)c(C(=O)NCc2ccccc2)c(O)c1-c1c(OC)cccc1OC have EC50 under 0.4 nM?
F

Quick check: does CCCCc1nc(=O)c(C(=O)N2CCC(c3ccccn3)C2)c(O)n1-c1c(OC)cccc1OC (stereo in doubt; 11b) have EC50 under 0.4 nM?
T

Quick check: does CCCCc1nc(=O)c(C(=O)N2CCC(c3ccncc3)C2)c(O)n1-c1c(OC)cccc1OC (stereo in doubt; 13b) have EC50 under 0.4 nM?
F

Quick check: does CCCCc1nc(=O)c(C(=O)N2CC[C@@H](c3ccc(Cl)cn3)C2)c(O)n1-c1c(OC)cccc1OC have EC50 under 0.4 nM?
T

Quick check: does CCCCc1nc(=O)c(C(=O)N2CCC(c3ccccn3)C2)c(O)n1-c1c(OC)cccc1OC (stereo in doubt; 11a) have EC50 under 0.4 nM?
T

====

Assay: AUC(0 to 24 hrs) in Sprague-Dawley rat at 1 mg/kg, po via gavage measured after 48 hrs by LC/MS/MS analysis
Assay type: ADME, organism-based
Design: route oral, dose 1 mg/kg, time 48 hrs
Conditions: in vivo
Reported property: AUC(0-t) at 48 h (µM·h)
Hi! Could you send only the number? It should be in µM·h, unit omitted.

Give the reported value of AUC(0-t) at 48 h for this record: CCCCc1nc(=O)c(C(=O)N2CC[C@@H](c3ccc(Cl)cn3)C2)c(O)n1-c1c(OC)cccc1OC
1.9

====

Assay: Protein binding in Sprague-Dawley rat plasma
Format: ADME, cell-free
Details: read-out: PPB (converted)
Reported property: fraction unbound
The answer should be written as a number, with no unit following it.

Give the reported value of fraction unbound for this record: CCCCc1nc(=O)c(C(=O)N2CC[C@@H](c3ccc(Cl)cn3)C2)c(O)n1-c1c(OC)cccc1OC
0.022

====

Assay: Metabolic stability in human liver microsomes assessed as parent compound remaining measured after 10 mins in presence of NADPH
Assay type: ADME, Microsome
Conditions: liver microsomes, read-out: Stabilty
Reported property: remaining at 10 min (%)
Hi! Could you send only the number? It should be in %, unit omitted.

- Compound: "CCCCc1nc(=O)c(C(=O)N2CC[C@H](c3ccccc3)C2)c(O)n1-c1c(OC)cccc1OC"
  Unit label: "%"
  remaining at 10 min: 85
- Compound: "CCCCc1nc(=O)c(C(=O)N2CCC(c3ccc(Cl)cc3)C2)c(O)n1-c1c(OC)cccc1OC (stereo in doubt; 10a)"
  Unit label: "%"
  remaining at 10 min: 97
- Compound: "CCCCc1[nH]c(=O)c(C(=O)N2CC[C@@H](c3ccccc3)C2)c(O)c1-c1c(OC)cccc1OC"
  Unit label: "%"
  remaining at 10 min: 100
- Compound: "CCCCc1nc(=O)c(C(=O)N2CCC(c3ccccn3)C2)c(O)n1-c1c(OC)cccc1OC (stereo in doubt; 11a)"
  Unit label: "%"
  remaining at 10 min: 82
- Compound: "CCCCc1nc(=O)c(C(=O)N2CC[C@H](c3ccc(Cl)cn3)C2)c(O)n1-c1c(OC)cccc1OC"
  Unit label: "%"
  remaining at 10 min: 100
- Compound: "CCCCc1nc(=O)c(C(=O)N2CC[C@@H](c3ccc(Cl)cn3)C2)c(O)n1-c1c(OC)cccc1OC"
  Unit label: "%"
  remaining at 10 min: 100

Give the reported value of remaining at 10 min for this record: CCCCc1nc(=O)c(C(=O)N2CC[C@@H](c3ccccc3)C2)c(O)n1-c1c(OC)cccc1OC
97

====

Target: Apelin receptor (Homo sapiens, UniProt P35414)
Assay: Agonist activity at human APJ receptor expressed in HEK293T cells assessed as compound stimulated inhibition of forskolin stimulated cAMP production incubated for 30 mins by HTRF assay
pEC50: −log10 of the molar value.
Classify by measured pEC50: MET if it is equal to or exceeds 10, NOT MET if it is smaller.

Study these solved cases before continuing.
- Molecule: "CCCCc1[nH]c(=O)c(C(=O)NCC)c(O)c1-c1c(OC)cccc1OC"
  Target or test system: "Apelin receptor (Homo sapiens, UniProt P35414)"
  Assigned category: "NOT MET"
- Molecule: "CCCCc1[nH]c(=O)c(C(=O)NCc2ccccc2)c(O)c1-c1c(OC)cccc1OC"
  Target or test system: "Apelin receptor (Homo sapiens, UniProt P35414)"
  Assigned category: "NOT MET"
- Molecule: "CCCCc1nc(=O)c(C(=O)N2CC[C@@H](c3ccc(Cl)cn3)C2)c(O)n1-c1c(OC)cccc1OC"
  Target or test system: "Apelin receptor (Homo sapiens, UniProt P35414)"
  Assigned category: "MET"
- Molecule: "CCCCc1nc(=O)c(C(=O)N2CCC(c3cccnc3)C2)c(O)n1-c1c(OC)cccc1OC (stereo in doubt; 12b)"
  Target or test system: "Apelin receptor (Homo sapiens, UniProt P35414)"
  Assigned category: "NOT MET"
- Molecule: "CCCCc1nc(=O)c(C(=O)N2CC[C@H](c3ccc(Cl)cn3)C2)c(O)n1-c1c(OC)cccc1OC"
  Target or test system: "Apelin receptor (Homo sapiens, UniProt P35414)"
  Assigned category: "MET"

From here, focus on the item given below.
API: above_or_equal(metric=pEC50, cutoff=10) for item CCCCc1[nH]c(=O)c(C(=O)N2CC[C@@H](c3ccccc3)C2)c(O)c1-c1c(OC)cccc1OC
NOT MET
